Values from paper PMC5540273

system: YANK2; construct: gene STK32B; conditions: concentration: 1 μM, replicates: in singlicate; n = 1;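 further: KINOMEscan kinase panel screen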
assay.readout: %Inh (%)

>>> measured_result("O=c1cc(N2CCOCC2)nc2n(Cc3cccc(F)c3)ccn12 [GSK2297430]")
14
>>> measured_result("CNc1ncnc2[nH]ncc12 [SKF-18355]")
9
>>> measured_result("CCc1nc(-c2cccc(C)c2)c(-c2ccnc(NCc3ccccc3)c2)s1")
2
>>> measured_result("c1ccc(-c2cc(-c3c[nH]nc3-c3ccccn3)ccn2)cc1 [GW576604]")
0
>>> measured_result("Cc1cn2c(=O)cc(N3CCOCC3)nc2n1Cc1cccc(Cl)c1Cl [GSK2334006]")
0
>>> measured_result("NS(=O)(=O)c1cccc(-c2ccc3ncc(N4CCOCC4)nc3c2)c1 [GSK1535721]")
3
>>> measured_result("COc1cc2c(cc1OC[C@@H](O)CO)ncc1c3ccc(C#N)cc3[nH]c21")
0
>>> measured_result("Cn1ccc2ncnc(Oc3ccc(NC(=O)Nc4ccncc4)c(Cl)c3)c21")
5
>>> measured_result("c1ccc(-c2n[nH]cc2-c2ccnc3ccccc23)nc1 [GW271431]")
4
>>> measured_result("C[C@@H](Oc1cc(-n2cnc3ccc(NC(=O)NC(C)(C)C)cc32)sc1C(N)=O)c1ccccc1Cl [GSK346294]")
0
>>> measured_result("O=C(NCCCN1CCOCC1)c1cccc(Nc2nccc(Nc3ccc(Oc4ccccc4)cc3)n2)c1 [GW663929]")
0
>>> measured_result("COc1cc2c(cc1OCCN1CCN(C)CC1)ncc1c3ccc(C#N)cc3[nH]c21")
0
>>> measured_result("CC(C)Oc1ccc2c(-c3ccnc(Nc4ccc(N5CCN(C)CC5)cc4)n3)cnn2n1 [GW696155]")
0
>>> measured_result("O=C(Nc1cccc(-c2nn3ncccc3c2-c2ccnc(Nc3cccc(C(F)(F)F)c3)n2)c1)c1c(F)cccc1F [GSK299495]")
15
>>> measured_result("N#Cc1c(N2CCOCC2)sc(-c2ccn[nH]2)c1-c1ccc(Cl)cc1")
0
>>> measured_result("COc1ccc(CNC(=O)NC2CCN(c3ccnc(Nc4ccc(OC)cc4)n3)C2)cc1 (stereo not drawn) [GSK1379727]")
0
>>> measured_result("NCCNS(=O)(=O)c1ccc(-c2ccnc3[nH]ccc23)cc1 [GSK977617]")
0
>>> measured_result("Cc1c2ccc(N(C)c3ccnc(Nc4cccc(S(N)(=O)=O)c4)n3)cc2nn1Cc1ccccc1.Cl.Cl [GW787226]")
0

###

Entries and their measured %Inh follow.
system: TESK1; conditions: concentration: 1 μM, replicates: in singlicate; n = 1
assay.readout: %Inh (%)

>>> measured_result("Cc1nnc(-c2ccc(C)c(-c3ccc(C(=O)Nc4ccc(NS(C)(=O)=O)cc4)cc3)c2)o1")
11
>>> measured_result("Cc1cn2c(=O)cc(N3CCOCC3)nc2n1Cc1cccc(Cl)c1Cl")
17
>>> measured_result("O=C(NCCNc1ccnc(Nc2ccc(F)cc2)n1)c1cc2ccccc2s1")
97.2
>>> measured_result("N#Cc1c(N2CCOCC2)sc(-c2ccn[nH]2)c1-c1ccc(Cl)cc1")
0
>>> measured_result("CN(C1=C(c2ccccc2)C(=O)NC1=O)c1ccccc1")
67

###

The reader will find reported %Inh values listed item by item below.
test system: CDK5; settings: concentration: 1 μM, replicates: in singlicate; n = 1
assay.readout: %Inh

>>> measured_result("Cc1cccc(-c2nc(Nc3ccc4ncsc4c3)c3ccccc3n2)n1 [GW867588]")
"0%"
>>> measured_result("O=C(NOCC1CC1)c1ccc(F)c(F)c1Nc1ccc(I)cc1Cl")
"5%"
>>> measured_result("Cc1cn2c(=O)cc(N3CCOCC3)nc2n1Cc1cccc(Cl)c1Cl [GSK2334006]")
"2%"
>>> measured_result("N#Cc1c(N2CCOCC2)sc(-c2ccn[nH]2)c1-c1ccc(Cl)cc1")
"15%"
>>> measured_result("COc1ccc(Nc2ncc(C#N)c(Nc3ccccc3C(N)=O)n2)cc1N1CCN(C)CC1.Cl [GSK1558669]")
"99.7%"
>>> measured_result("CC(C)Oc1ccc2c(-c3ccnc(Nc4ccc(N5CCN(C)CC5)cc4)n3)cnn2n1 [GW696155]")
"0%"
>>> measured_result("Cc1nnc(-c2ccc3ncc(-c4ccc(S(C)=O)cc4)n3c2)o1 (stereo not drawn)")
"0%"
>>> measured_result("COc1ccc(Nc2nccc(N3CCC(NC(=O)Nc4cc(C)ccc4C)C3)n2)cc1 (stereo not drawn) [GSK1379741]")
"0%"
>>> measured_result("O=C(c1ccc(-c2cc(-c3c[nH]nc3-c3ccccn3)ccn2)cc1)N1CCOCC1 [GW812171]")
"0%"

###

test system: CAMKK1; conditions: concentration: 1 μM, replicates: in singlicate; n = 1
assay.readout: %Inh (%)

>>> measured_result("O=C1Cc2cc(Nc3nc(NCc4cccc(S(=O)(=O)C(F)(F)F)c4)ncc3C(F)(F)F)ccc2N1")
9
>>> measured_result("COc1cc2c(cc1OCCN1CCN(C)CC1)ncc1c3ccc(C#N)cc3[nH]c21")
86
>>> measured_result("CCn1cnc2c(N)ncnc21")
8
>>> measured_result("CCc1nc(-c2cccc(C)c2)c(-c2ccnc(NCc3ccccc3)c2)s1")
3
>>> measured_result("CN(C(=O)c1ccc(-c2cc(-c3c[nH]nc3-c3ccccn3)ccn2)cc1)C1CCOCC1")
12
>>> measured_result("NS(=O)(=O)CCc1cccc(Nc2nccc(-c3c(-c4cccc(NC(=O)c5c(F)cccc5F)c4)nn4ccccc34)n2)c1")
0
>>> measured_result("O=C(NCCCN1CCOCC1)c1cccc(Nc2nccc(Nc3ccc(Oc4ccccc4)cc3)n2)c1")
0
>>> measured_result("Cn1ccc2ncnc(Oc3ccc(NC(=O)Nc4ccncc4)c(Cl)c3)c21")
0
>>> measured_result("O=c1cc(N2CCOCC2)nc2n(Cc3cccc(Cl)c3Cl)c(C3CC3)nn12")
3
>>> measured_result("CC(C)(C)n1cnc2c(N)ncnc21")
0
>>> measured_result("C[C@@H](Oc1cc(-n2cnc3ccc(NC(=O)NC(C)(C)C)cc32)sc1C(N)=O)c1ccccc1Cl")
3
>>> measured_result("NCC(NC(=O)c1cc(-c2cn[nH]c2)c(-c2ccnc3[nH]ccc23)s1)c1ccccc1.O=C(O)C(F)(F)F.O=C(O)C(F)(F)F (centres unmarked)")
76
>>> measured_result("COc1ccc(CNC(=O)NC2CCN(c3ccnc(Nc4ccc(OC)cc4)n3)C2)cc1 (centres unmarked)")
0
>>> measured_result("Cc1cccc(-c2nc(-c3ccc(S(C)(=O)=O)cc3)sc2-c2ccncc2)c1")
4
>>> measured_result("Cl.Oc1cccc(Nc2ccnc3cc(-c4ccncc4)ccc23)c1")
0
>>> measured_result("COC(=O)Nc1nc2cc(Oc3ccc(NC(=O)Nc4cc(F)ccc4F)cc3)ccc2[nH]1.Cl")
0
>>> measured_result("CC(C)(CN)c1nc(-c2ccc(Cl)c(O)c2)c(-c2ccncc2)[nH]1.O=C(O)C(F)(F)F")
0

###

tested on: PRKG1; conditions: concentration: 1 μM, replicates: in singlicate; n = 1
assay.readout: %Inh (%)

>>> measured_result("Fc1ccc(-c2ncn(CCCN3CCOCC3)c2-c2cccnc2)cc1")
35
>>> measured_result("COc1cc2c(cc1OC[C@@H](O)CO)ncc1c3ccc(C#N)cc3[nH]c21")
0
>>> measured_result("CCn1cnc2c(N)ncnc21")
13
>>> measured_result("O=C(Nc1n[nH]c2cc(-c3cccc(F)c3)ccc12)C1CC1")
16
>>> measured_result("N#Cc1ccc(-c2cc(-c3c[nH]nc3-c3ccccn3)ccn2)cc1")
0
>>> measured_result("CNc1ncnc2[nH]ncc12")
0
>>> measured_result("O=c1cc(N2CCOCC2)nc2n(Cc3cccc(Cl)c3Cl)c(C3CC3)nn12")
14
>>> measured_result("Cn1cc(-c2ccc3c(c2)CCN3C(=O)Cc2ccccc2Cl)c2c(N)ncnc21")
0
>>> measured_result("O=C1Cc2cc(Nc3nc(NCc4cccc(S(=O)(=O)C(F)(F)F)c4)ncc3C(F)(F)F)ccc2N1")
0
>>> measured_result("CCc1nc(-c2cccc(C)c2)c(-c2ccnc(NCc3ccccc3)c2)s1")
0
>>> measured_result("Cc1cccc(-c2nc(-c3ccc(S(C)(=O)=O)cc3)sc2-c2ccncc2)c1")
0
>>> measured_result("CN1c2ccc(NCc3ccc(F)cc3)cc2-c2c(cnn2C)S1(=O)=O")
0
>>> measured_result("Cc1nnc(-c2ccc(C)c(-c3ccc(C(=O)Nc4ccc(NS(C)(=O)=O)cc4)cc3)c2)o1")
7
>>> measured_result("COc1ccc(COc2cc(-n3cnc4ccccc43)sc2C(N)=O)cc1")
0
>>> measured_result("CN(C(=O)c1ccc(-c2cc(-c3c[nH]nc3-c3ccccn3)ccn2)cc1)C1CCOCC1")
0
>>> measured_result("Cc1ccc(NC(=O)c2ccnc(N3CCN(C)CC3)c2)cc1-c1ccc(C(=O)NCC2CC2)cc1")
0
>>> measured_result("O=C(NOCC1CC1)c1ccc(F)c(F)c1Nc1ccc(I)cc1Cl")
0
>>> measured_result("C[C@@H](Oc1cc(-n2cnc3ccc(NC(=O)NC(C)(C)C)cc32)sc1C(N)=O)c1ccccc1Cl")
3
>>> measured_result("Cc1cn2c(=O)cc(N3CCOCC3)nc2n1Cc1cccc(Cl)c1Cl")
0
